Test system: HeLa cells
Assay: MTT assay, growth inhibition of HeLa cells
Type: cell-based, human
Conditions: Homo sapiens, HeLa, 48 h, read-out: IC50, growth inhibition of HeLa cells, 48 hours, MTT
quantity.kind: IC50 (µM)
Kindly answer with a numeric value in µM, unit omitted.

Qu. Item under review: COc1ccc(C2CNC(c3ccccc3F)OC23CCCCC3)cc1 (stereo not shown) . Reported IC50?
Ans. 48.2

----------
Tested on: HeLa cells
Test: MTT assay, growth inhibition of HeLa cells
Type: cell-based, human
Details: Homo sapiens, HeLa; 5 μM, 48 hs, mean ± s; read-out: Growth inhibition rate in HeLa cells
# reported inhibition at 5 µM; entries follow
Kindly answer with a numeric value in %, unit omitted.

Qu. Item under review: COc1ccc(C2CNC(c3ccc(F)cc3F)OC23CCCCC3)cc1 (stereo not drawn) [No. 22] . Reported inhibition at 5 µM?
Ans. -0.339

Qu. Item under review: COc1ccc(C2CNC(c3ccc(C)cc3)OC23CCCCC3)cc1 (stereo not drawn) [No. 20] . Reported inhibition at 5 µM?
Ans. 5.02

----------
# reported IC50; entries follow
Target: human recombinant HPA (Homo sapiens, UniProt Q9Y251)
Sequence (Q9Y251 158-543 limits assumed): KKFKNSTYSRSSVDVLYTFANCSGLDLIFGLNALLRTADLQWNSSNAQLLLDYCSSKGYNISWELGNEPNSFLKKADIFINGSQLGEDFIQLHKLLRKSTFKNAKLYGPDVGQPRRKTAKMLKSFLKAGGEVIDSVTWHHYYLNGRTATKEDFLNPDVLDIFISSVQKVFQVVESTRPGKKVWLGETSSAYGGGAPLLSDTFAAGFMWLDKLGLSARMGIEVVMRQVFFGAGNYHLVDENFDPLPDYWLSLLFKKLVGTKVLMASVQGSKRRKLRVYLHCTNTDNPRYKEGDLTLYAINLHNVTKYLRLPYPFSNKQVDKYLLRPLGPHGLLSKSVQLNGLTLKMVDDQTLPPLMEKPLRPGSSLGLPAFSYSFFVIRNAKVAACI
Sequence (Q9Y251 36-109 limits assumed): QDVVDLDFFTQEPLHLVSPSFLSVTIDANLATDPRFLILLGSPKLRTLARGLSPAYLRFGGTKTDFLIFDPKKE
Assay: Detection of HPA activity inhibition (Heparan Degrading Enzyme Assay Kit)
Details: 31 mIU human recombinant HPA, 37°C, 45 minutes; read-out: IC50, inhibitory effect on heparanase activity
Kindly answer with a numeric value in µM, unit omitted.

Please review the following examples before continuing.
COc1ccc(C2CNC(c3ccc(C)cc3)OC23CCCCC3)cc1 (stereo not drawn) : 14.1
COc1ccc(C2CNC(c3ccc([N+](=O)[O-])cc3)OC23CCCCC3)cc1 (stereo not drawn) : 28.8

Next molecule, please.
Qu. Please state recorded IC50 (tested on human recombinant HPA (Homo sapiens, UniProt Q9Y251)) of Fc1cccc(F)c1C1NCC(c2ccccc2)C2(CCCCC2)O1 (stereo not drawn)
Ans. 4.47

----------
# reported melting point; entries follow

Please review the following examples before continuing.
COc1ccc(C2CNC(c3ccccc3F)OC23CCCCC3)cc1 (stereo not shown) [No. 16] : 171.3 to 172.5 °C
Fc1cccc(F)c1C1NCC(c2ccccc2)C2(CCCCC2)O1 (stereo not shown) [No. 14] : 130.4 to 131.2 °C

Qu. Item under review: COc1ccc(C2CNC(c3c(F)cccc3F)OC23CCCCC3)cc1 (stereo not shown) . Reported melting point?
Ans. 131.7 to 132.6 °C

Qu. Item under review: Clc1ccc(C2NCC(c3ccccc3)C3(CCCCC3)O2)cc1 (stereo not shown) [No. 11] . Reported melting point?
Ans. 127.7 to 128.5 °C

Qu. Item under review: COc1ccc(C2CNC(c3ccc(F)cc3F)OC23CCCCC3)cc1 (stereo not shown) [No. 22] . Reported melting point?
Ans. 128.7 to 129.6 °C

Qu. Item under review: COc1ccc(C2CNC(c3ccc([N+](=O)[O-])cc3)OC23CCCCC3)cc1 (stereo not shown) [No. 15] . Reported melting point?
Ans. 111.3 to 112.5 °C

Qu. Item under review: COc1ccc(C2CNC(c3ccc(C)cc3)OC23CCCCC3)cc1 (stereo not shown) [No. 20] . Reported melting point?
Ans. 105.4 to 106.7 °C

----------
# reported inhibition at 5 µM; entries follow
Test system: HeLa cells
Experiment: MTT assay, growth inhibition of HeLa cells
Format: cell-based, human
Settings: Homo sapiens, HeLa; 5 μM, 48 hs, mean ± s; read-out: Growth inhibition rate in HeLa cells
Kindly answer with a numeric value in %, unit omitted.

Fc1cccc(F)c1C1NCC(c2ccccc2)C2(CCCCC2)O1 (stereo not shown) [No. 14] : 4.05

Qu. Please state recorded inhibition at 5 µM (tested on HeLa cells) of COc1ccc(C2CNC(c3ccc([N+](=O)[O-])cc3)OC23CCCCC3)cc1 (stereo not shown) [No. 15]
Ans. 17

Qu. Please state recorded inhibition at 5 µM (tested on HeLa cells) of Clc1ccc(C2NCC(c3ccccc3)C3(CCCCC3)O2)cc1 (stereo not shown) [No. 11]
Ans. 2.65

Qu. Please state recorded inhibition at 5 µM (tested on HeLa cells) of Fc1ccc(C2NCC(c3ccccc3)C3(CCCCC3)O2)cc1 (stereo not shown) [No. 12]
Ans. -1.54
